Listing: Ratio of selected molecules
Test system: Oocyte
Assay: Modulation of rat alpha1beta2gamma2L GABAA receptor expressed in Xenopus laevis oocytes assessed as […] at 10 uM by electrophysiology assay relative to GABA
Assay type: cell-based
A bare number is all that is needed in reply.

See these solved cases before continuing.
C[C@]12CC[C@@H](O)C[C@@H]1CC[C@@H]1[C@@H]2[C@@H](OCc2ccccc2)C[C@@]2(C)[C@H]1CC[C@@]21CO1
0.42
C[C@@]12CCC3C(CC[C@@H]4C[C@@H](O)CC[C@@]34C)C1CCC2=O (single isomer, unassigned)
0.03
C[C@]12CC[C@@H](O)C[C@@H]1CC[C@@H]1[C@@H]2CC[C@]2(C)C(=O)CC[C@@H]12
0.02

Now for a further molecule.
// query Using known records, supply Ratio for C[C@@]12CC[C@H](O)C[C@H]1CC[C@@H]1[C@@H]2[C@H](OCc2ccccc2)C[C@]2(C)[C@H]1CC[C@]21CO1
// result 0.05

* * *

Listing: pIC50 of selected compounds
Test: Displacement of [35S]TBPS from GABAA receptor picrotoxin binding site in rat brain membranes
Format: cell membranes
Expect pIC50 as a plain number equal to -log10 of the molar concentration.

See these solved cases before continuing.
C[C@@]12CC[C@H](O)C[C@H]1C[C@@H](OCc1ccccc1)[C@@H]1[C@@H]2CC[C@@]2(C)C(=O)CC[C@@H]12
6.77
CC(=O)[C@H]1CC[C@H]2[C@@H]3CC[C@H]4C[C@H](O)CC[C@]4(C)[C@H]3CC[C@]12C
7.13
C[C@]12CC[C@@H](O)C[C@@H]1C[C@H](OCc1ccccc1)[C@@H]1[C@@H]2CC[C@@]2(C)[C@H]1CC[C@@]21CO1
5.17
C[C@]12CC[C@@H](O)C[C@@H]1CC[C@@H]1[C@@H]2[C@@H](OCc2ccccc2)C[C@@]2(C)[C@H]1CC[C@@]21CO1
7.82
C[C@@]12CC[C@H](O)C[C@H]1CCC1C2CC[C@]2(C)C1CC[C@]21CO1 (single isomer, unassigned)
6.33

// query Using known records, supply pIC50 for C[C@]12CC[C@@H](O)C[C@@H]1CC[C@@H]1[C@@H]2[C@@H](OCc2ccccc2)C[C@]2(C)C(=O)CC[C@@H]12
// result 6.55

// query Using known records, supply pIC50 for C[C@@]12CC[C@H](O)C[C@H]1C[C@@H](OCc1ccccc1)[C@@H]1[C@@H]2CC[C@]2(C)[C@H]1CC[C@]21CO1
// result 7.28

* * *

Listing: IC50 of selected molecules
Experiment: Displacement of [35S]TBPS from GABAA receptor picrotoxin binding site in rat brain membranes
Assay type: cell membranes
The reply should be a number in nM, with the unit left off.

// query Using known records, supply IC50 for C[C@]12CC[C@@H](O)C[C@@H]1CC[C@@H]1[C@@H]2CC[C@@]2(C)[C@H]1CC[C@@]21CO1
// result 105

* * *

System: Oocyte
Test: Modulation of rat alpha1beta2gamma2L GABAA receptor expressed in Xenopus laevis oocytes assessed as potentiation of GABA-induced chloride currents at 0.1 uM by electrophysiology assay relative to control
Type: cell-based
experimental-readout: Ratio
A bare number is all that is needed in reply.

C[C@@]12CC[C@H](O)C[C@H]1C[C@@H](OCc1ccccc1)[C@@H]1[C@@H]2CC[C@@]2(C)C(=O)CC[C@@H]12
1.25

// query Using known records, supply Ratio for C[C@@]12CC[C@H](O)C[C@H]1CC[C@@H]1[C@@H]2[C@H](OCc2ccccc2)C[C@@]2(C)C(=O)CC[C@@H]12
// result 0.89

// query Using known records, supply Ratio for CC(=O)[C@H]1CC[C@H]2[C@@H]3CC[C@H]4C[C@H](O)CC[C@]4(C)[C@H]3CC[C@]12C
// result 1.26

// query Using known records, supply Ratio for C[C@]12CC[C@@H](O)C[C@@H]1C[C@H](OCc1ccccc1)[C@@H]1[C@@H]2CC[C@@]2(C)[C@H]1CC[C@@]21CO1
// result 0.83

// query Using known records, supply Ratio for C[C@@]12CC[C@H](O)C[C@H]1CCC1C2CC[C@]2(C)C1CC[C@]21CO1 (single isomer, unassigned)
// result 2.62

// query Using known records, supply Ratio for C[C@]12CC[C@@H](O)C[C@@H]1CC[C@@H]1[C@@H]2[C@@H](OCc2ccccc2)C[C@]2(C)C(=O)CC[C@@H]12
// result 1.08

// query Using known records, supply Ratio for C[C@@]12CC[C@H](O)C[C@H]1C[C@@H](OCc1ccccc1)[C@@H]1[C@@H]2CC[C@]2(C)[C@H]1CC[C@]21CO1
// result 3.47

* * *

System: Oocyte
Test: Modulation of rat alpha1beta2gamma2L GABAA receptor expressed in Xenopus laevis oocytes assessed as […] at 10 uM by electrophysiology assay relative to GABA
Format: cell-based
experimental-readout: Ratio
A bare number is all that is needed in reply.

See these solved cases before continuing.
CC(=O)[C@H]1CC[C@H]2[C@@H]3CC[C@H]4C[C@H](O)CC[C@]4(C)[C@H]3CC[C@]12C [BREXANOLONE]
0.37
C[C@@]12CC[C@H](O)C[C@H]1CC[C@@H]1[C@@H]2[C@H](OCc2ccccc2)C[C@@]2(C)C(=O)CC[C@@H]12
0
C[C@@]12CC[C@H](O)C[C@H]1CCC1C2CC[C@]2(C)C1CC[C@]21CO1 (single isomer, unassigned)
0.1
C[C@]12CC[C@@H](O)C[C@@H]1C[C@H](OCc1ccccc1)[C@@H]1[C@@H]2CC[C@@]2(C)[C@H]1CC[C@@]21CO1
0.09

// query Using known records, supply Ratio for C[C@]12CC[C@@H](O)C[C@@H]1CC[C@@H]1[C@@H]2[C@@H](OCc2ccccc2)C[C@]2(C)C(=O)CC[C@@H]12
// result 0.2

// query Using known records, supply Ratio for C[C@@]12CC[C@H](O)C[C@H]1C[C@@H](OCc1ccccc1)[C@@H]1[C@@H]2CC[C@]2(C)[C@H]1CC[C@]21CO1
// result 0.22

* * *

Listing: Ratio of selected compounds
Tested on: Oocyte
Assay: Modulation of rat alpha1beta2gamma2L GABAA receptor expressed in Xenopus laevis oocytes assessed as potentiation of GABA-induced chloride currents at 10 uM by electrophysiology assay relative to control
Type: cell-based
A bare number is all that is needed in reply.

C[C@]12CC[C@@H](O)C[C@@H]1C[C@H](OCc1ccccc1)[C@@H]1[C@@H]2CC[C@@]2(C)[C@H]1CC[C@@]21CO1
0.77
C[C@]12CC[C@@H](O)C[C@@H]1C[C@H](OCc1ccccc1)[C@@H]1[C@@H]2CC[C@]2(C)C(=O)CC[C@@H]12
0.76

Now for a further compound.
// query Using known records, supply Ratio for C[C@]12CC[C@@H](O)C[C@@H]1CC[C@@H]1[C@@H]2[C@@H](OCc2ccccc2)C[C@]2(C)C(=O)CC[C@@H]12
// result 24.4

* * *

System: Oocyte
Assay: Modulation of rat alpha1beta2gamma2L GABAA receptor expressed in Xenopus laevis oocytes assessed as […] at 10 uM by electrophysiology assay relative to GABA
Type: cell-based
Listing: Ratio of selected molecules
A bare number is all that is needed in reply.

C[C@@]12CC[C@H](O)C[C@H]1C[C@@H](OCc1ccccc1)[C@@H]1[C@@H]2CC[C@@]2(C)C(=O)CC[C@@H]12
0.11

// query Using known records, supply Ratio for C[C@]12CC[C@@H](O)C[C@@H]1C[C@H](OCc1ccccc1)[C@@H]1[C@@H]2CC[C@]2(C)C(=O)CC[C@@H]12
// result 0

// query Using known records, supply Ratio for C[C@]12CC[C@@H](O)C[C@@H]1CC[C@@H]1[C@@H]2CC[C@@]2(C)[C@H]1CC[C@@]21CO1
// result 0.22

* * *

Listing: Ratio of selected molecules
Test system: Oocyte
Experiment: Modulation of rat alpha1beta2gamma2L GABAA receptor expressed in Xenopus laevis oocytes assessed as potentiation of GABA-induced chloride currents at 1 uM by electrophysiology assay relative to control
Format: cell-based
A bare number is all that is needed in reply.

See these solved cases before continuing.
C[C@]12CC[C@@H](O)C[C@@H]1CC[C@@H]1[C@@H]2CC[C@]2(C)C(=O)CC[C@@H]12 [ANDROSTERONE]
1.41
C[C@]12CC[C@@H](O)C[C@@H]1CC[C@@H]1[C@@H]2[C@@H](OCc2ccccc2)C[C@]2(C)C(=O)CC[C@@H]12
2.96

// query Enter Ratio (test system Oocyte) for C[C@]12CC[C@@H](O)C[C@@H]1CC[C@@H]1[C@@H]2CC[C@@]2(C)[C@H]1CC[C@@]21CO1
// result 21.9

* * *

Tested on: Oocyte
Assay: Modulation of rat alpha1beta2gamma2L GABAA receptor expressed in Xenopus laevis oocytes assessed as potentiation of GABA-induced chloride currents at 10 uM by electrophysiology assay relative to control
Assay type: cell-based
Class definitions on Ratio: low (below 10), middle (10 to below 30), high (30 or more)

// known answers, use as guide
C[C@@]12CC[C@H](O)C[C@H]1CCC1C2CC[C@]2(C)C1CC[C@]21CO1 (single isomer, unassigned)
middle
C[C@]12CC[C@@H](O)C[C@@H]1CC[C@@H]1[C@@H]2[C@@H](OCc2ccccc2)C[C@@]2(C)[C@H]1CC[C@@]21CO1
high
C[C@]12CC[C@@H](O)C[C@@H]1CC[C@@H]1[C@@H]2CC[C@]2(C)C(=O)CC[C@@H]12
low

// query Which class holds C[C@@]12CCC3C(CC[C@@H]4C[C@@H](O)CC[C@@]34C)C1CCC2=O (single isomer, unassigned) ?
// result middle

// query Which class holds C[C@@]12CC[C@H](O)C[C@H]1C[C@@H](OCc1ccccc1)[C@@H]1[C@@H]2CC[C@]2(C)[C@H]1CC[C@]21CO1 ?
// result high

// query Which class holds CC(=O)[C@H]1CC[C@H]2[C@@H]3CC[C@H]4C[C@H](O)CC[C@]4(C)[C@H]3CC[C@]12C ?
// result low

// query Which class holds C[C@@]12CC[C@H](O)C[C@H]1CC[C@@H]1[C@@H]2[C@H](OCc2ccccc2)C[C@]2(C)[C@H]1CC[C@]21CO1 ?
// result low

// query Which class holds C[C@@]12CC[C@H](O)C[C@H]1CC[C@@H]1[C@@H]2[C@H](OCc2ccccc2)C[C@@]2(C)C(=O)CC[C@@H]12 ?
// result low

// query Which class holds C[C@@]12CC[C@H](O)C[C@H]1C[C@@H](OCc1ccccc1)[C@@H]1[C@@H]2CC[C@@]2(C)C(=O)CC[C@@H]12 ?
// result middle

// query Which class holds C[C@]12CC[C@@H](O)C[C@@H]1CC[C@@H]1[C@@H]2CC[C@@]2(C)[C@H]1CC[C@@]21CO1 ?
// result high
